Numbers sourced from PubChem BioAssay AID328.

- System: BDF1 mice, P388 leukemia ip, median survival T/C
- assay remarks: NCI In Vivo Anticancer Drug Screen. Data for tumor model P388 Leukemia (intraperitoneal) in B6D2F1 (BDF1) mice
- applied conditions: endpoint: median survival time; dose: 400.0 mg/kg/injection; schedule: Q01DX009 (ip); vehicle: Klucel (hydroxypropylcellulose) (HPC); higher = longer survival
Inconclusive results and toxic doses are left out.
Reported T/C is given for each of the following molecules.

Some solved entries appear below for comparison.
Given CN(C)c1ccc(C=C(C#N)C#N)cc1 , state its recorded T/C.
113 % of control

Consider the molecule NC(=O)C1(C(N)=O)CCC1 and give its measured T/C.
100 % of control

Return reported T/C; argument: O=[N+]([O-])c1cc(Br)c(N2CCCC2)cc1N1CCCC1
100 % of control

I would be grateful if you could share the reported T/C for Cc1ccc(NC(=O)c2ccc(Cl)cc2)cc1 .
90 % of control

Bench note: what T/C did CC1(C)SC(C)(C)N(C=O)C1C(=O)O (centres undefined) show?
90 % of control

Next:
Entry O=C(O)C(Cc1ccc(O)cc1)c1ccccc1 (centres undefined) : reported T/C = ?
109 % of control

I am curious: what T/C value has been reported for CCCCCCCCCCCCCCCC(=O)OCc1cc(=O)c(O)co1 ?
95 % of control

What does the record list as T/C for COC(=O)Nc1nc2ccc(Br)cc2[nH]1 ?
116 % of control

// returns reported T/C for input CC1(C)OC(=O)C(=Cc2c(Cl)cccc2Cl)C(=O)O1
100 % of control

* * *

Catalogue of T/C readings, one per entry.
- Tested on: BDF1 mice, P388 leukemia ip, median survival T/C
- assay remarks: NCI In Vivo Anticancer Drug Screen. Data for tumor model P388 Leukemia (intraperitoneal) in B6D2F1 (BDF1) mice
- applied conditions: endpoint: median survival time; dose: 400.0 mg/kg/injection; schedule: Q01DX001 (ip); vehicle: saline with Tween-80; higher = longer survival
- Description: The antitumor activity of compounds was measured in mice bearing transplantable tumors. Survival or tumor size were measured and the results are expressed as the measurement made in the treated group (T) divided by the measurement made in the vehicle treated control group (C). The tumor model used in this assay is P388 Leukemia (intraperitoneal) in B6D2F1 (BDF1) mice
Toxic doses and inconclusive results are not listed.

Recorded T/C, per entry:
Lab request: please report T/C under test system BDF1 mice, P388 leukemia ip, median survival T/C for COC(=O)C(CC(=O)c1ccccc1)NCc1ccccc1 (centres undefined)
100 % of control

GET /values?readout=T/C&system=BDF1 mice, P388 leukemia ip, median survival T/C&item= OC1CCC2(CC1)SCCS2
101 % of control

Record lookup: for BDF1 mice, P388 leukemia ip, median survival T/C, what T/C belongs to CC1=CCC(CC(N)=O)C1(C)C (centres undefined) ?
92 % of control

Further cases:
What value of T/C on BDF1 mice, P388 leukemia ip, median survival T/C does CCc1noc(CC)c1CC1=C2CCC3(C)CCC(C)(C)CC3C2(C)CCC1=O (centres undefined) have?
90 % of control

Return T/C measured with BDF1 mice, P388 leukemia ip, median survival T/C given this compound: S=C1SC(c2ccccc2)(c2ccccc2)c2ccccc21
93 % of control

Short answer please: T/C, BDF1 mice, P388 leukemia ip, median survival T/C, entry CC(C)(C)OC(=O)C(C=O)N1C(=O)c2ccccc2C1=O (centres undefined)
100 % of control

* * *

Entries and their measured T/C follow.
- Test system: BDF1 mice, P388 leukemia ip, median survival T/C
- assay remarks: NCI In Vivo Anticancer Drug Screen. Data for tumor model P388 Leukemia (intraperitoneal) in B6D2F1 (BDF1) mice
- applied conditions: endpoint: median survival time; dose: 5.0 mg/kg/injection; schedule: Q01DX009 (ip); vehicle: saline; higher = longer survival
Inconclusive results and toxic doses are left out. Non-standard residues stand in square brackets, D forms with d. Residues, ends and D or L forms follow the SMILES beside them. ξ: configuration not given here. ξLac(3-iPr) = CC(C)CC(O)C(=O)O; NMeV = CN[CH](C(=O)O)C(C)C; NMeA = CN[CH](C)C(=O)O; βAla = NCCC(=O)O

Past entries and their recorded results:
Return T/C measured with BDF1 mice, P388 leukemia ip, median survival T/C given this compound: C[C@]12CC[C@H]3[C@@H](CCC4=C[C@@H](OC5OCC(OC6OC(CO)C(O)C(O)C6O)C(O)C5O)CC[C@@]43C=O)[C@@]1(O)CCC2C1=CC(=O)OC1 (some centres undefined)
111 % of control

Provide value of T/C for this record tested with BDF1 mice, P388 leukemia ip, median survival T/C: OCCN1CCN(CC/C=C2/c3ccccc3Sc3ccc(C(F)(F)F)cc32)CC1
101 % of control

Please tell me: T/C of NC(=O)c1ccc[n+](Cc2c(Cl)cccc2Cl)c1 , system BDF1 mice, P388 leukemia ip, median survival T/C?
96 % of control

Let us move to another entry and its T/C.
Item CCC(C)C1NC(=O)C2CCCN2C(=O)C(CC(C)C)OC(=O)CCNC(=O)C(C)N(C)C(=O)C(C(C)C)N(C)C1=O (centres undefined) (cyclo([ξLac(3-iPr)]PI[NMeV][NMeA][βAla]); configuration not given here) with BDF1 mice, P388 leukemia ip, median survival T/C - T/C?
108 % of control

* * *

Listed below: T/C values for each entry.
- System: BDF1 mice, P388 leukemia ip, median survival T/C
- assay remarks: NCI In Vivo Anticancer Drug Screen. Data for tumor model P388 Leukemia (intraperitoneal) in B6D2F1 (BDF1) mice
- applied conditions: endpoint: median survival time; dose: 400.0 mg/kg/injection; schedule: Q04DX003 (ip); vehicle: saline sonified; higher = longer survival
Inconclusive results and toxic doses are left out.

Query: T/C; subject: CC[C@@H]1CN(C)[C@H]2Cc3c([nH]c4ccccc34)C(=O)C[C@H]1C2C(=O)OC (stereo partly drawn)
90 % of control

May I ask what T/C has been recorded for COc1ccc2c(c1)CCC(CC(C)=O)C2=O (stereo not drawn) ?
104 % of control

Query: T/C; subject: NC(=O)c1cc([N+](=O)[O-])ccc1N
120 % of control

Now consider a different compound.
Reported T/C for CCCCCCCCCCCCCCCCNc1cccc2ccccc12 : what is it?
95 % of control

* * *

- Test system: BDF1 mice, P388 leukemia ip, median survival T/C
- assay remarks: NCI In Vivo Anticancer Drug Screen. Data for tumor model P388 Leukemia (intraperitoneal) in B6D2F1 (BDF1) mice
- applied conditions: endpoint: median survival time; dose: 60.0 mg/kg/injection; schedule: Q01DX009 (ip); vehicle: saline with Tween-80; higher = longer survival
Inconclusive results and toxic doses are left out.
parameter: T/C

Reference set (3 entries):
Which T/C value is on record for CCOC(=S)SCC(=O)Nc1ccc(Br)cc1 ?
98 % of control

Can you look up the measured T/C of CC(=O)N1C(=O)N(Cl)C(=O)C1(c1ccc(Cl)cc1)c1ccc(Cl)cc1 for me?
116 % of control

Report T/C for O=[N+]([O-])c1ccc(N(CCO)CCO)c2nonc12 please.
101 % of control

New cases:
# get_value(readout='T/C', item= O=[N+]([O-])c1cc2no[n+]([O-])c2cc1N1CCN(c2cc3c(cc2[N+](=O)[O-])no[n+]3[O-])CC1 )
97 % of control

* * *

As shown below, each of these compounds has a reported T/C value.
- Tested on: BDF1 mice, P388 leukemia ip, median survival T/C
- assay remarks: NCI In Vivo Anticancer Drug Screen. Data for tumor model P388 Leukemia (intraperitoneal) in B6D2F1 (BDF1) mice
- applied conditions: endpoint: median survival time; dose: 400.0 mg/kg/injection; schedule: Q01DX009 (ip); vehicle: other; higher = longer survival
Inconclusive results and toxic doses are left out.

# T/C lookup, item CCCCCCCCCCCC(O)CCCCC (centres undefined)
115 % of control

Please give the measured T/C for this compound: Clc1ncnc2c1ncn2C1CCCCO1 (centres undefined)
115 % of control

I'd like to know its T/C. The compound in question is OC(C1CCCCC1)(C1CCCCC1)C1CCCCC1
109 % of control

Further cases:
Recorded T/C of O=C(/C=C/c1ccccc1Cl)NCC(O)CO (centres undefined) , please.
91 % of control

* * *

- System: BDF1 mice, P388 leukemia ip, median survival T/C
- assay remarks: NCI In Vivo Anticancer Drug Screen. Data for tumor model P388 Leukemia (intraperitoneal) in B6D2F1 (BDF1) mice
- applied conditions: endpoint: median survival time; dose: 100.0 mg/kg/injection; schedule: Q01DX009 (ip); vehicle: saline
Inconclusive results and toxic doses are left out. The calls were made as follows: active = survival T/C of 150% or more; inactive = T/C below 125% in these data.
Reply using exactly one outcome from class 1 = active, class 0 = inactive

Hi team, can someone confirm the assay call for CC(=O)OC1CCC2(C)C(CC(=O)C(C)C23CCC2(C=COC2)O3)C1(C)C (stereo not drawn) ?
class 0

---
Recorded test call requested for NC(=O)NOCC1NC(=O)C(CONC(N)=O)NC1=O (stereo not drawn)
class 0

// param item: C[C@]12CC[C@@H]3c4ccc(OC5CCCCO5)cc4CC[C@H]3[C@@H]1CC[C@@H]2O (stereo partly drawn) ; yields the recorded call
class 0

Per the assay record, what outcome was assigned to CC(C)CSC(C)C ?
class 0

Check the results log: what was the call for O=C(O)C(S)C(S)C(=O)O.[As] (stereo not drawn) ?
class 0

Hello, I am checking results. What call was entered for C(CC1CO1)C1CO1 (stereo not drawn) ?
class 1

Write down the call the test reported for this compound. Item: COCC(N)=O
class 0

Recorded test call requested for CS(=O)(=O)OC[C@@H](O)[C@@H](O)COS(C)(=O)=O
class 0

Per the records of this test, what outcome belongs to CCCCNC1=CC(=O)CC(C)(C)C1 ?
class 0

I would be grateful if you could indicate the recorded call for Cc1noc(N)c1[N+](=O)[O-] .
class 0

Per the records of this test, what outcome belongs to CCB(CC)OCC1OB(CC)OC1C1OB(CC)OC1COB(CC)CC (stereo not drawn) ?
class 0

Write down the call the test reported for this compound. Item: Cc1nn(C2CC(O)C(O)C(CO)O2)c(=O)[nH]c1=O (stereo not drawn)
class 0

What was the test verdict on CCOC(=O)/C=C(\C)OCC ?
class 0
